- Test system: phosphorylation of pRb at the Ser780 site in JeKo-1 mantle cell lymphoma cells
- ASSAY COMMENT: CDK4 cellular assay: ELISA of pRb phosphorylation at Ser780 in JeKo-1 cells
- Type: cell-based
- CONDITION PARAMETERS: Homo sapiens; JeKo-1 cells, p-pRb Ser780 ELISA, non-normalized; read-out: Cellular ppRb inhibition IC50
- Method: Cell-based assay measuring phosphorylation levels of pRb at the Ser780 site using an enzyme-linked immunosorbent assay (ELISA) method (Table 6). […] Plates were incubated overnight at 4° C. with rocking. […] After incubation, 50 μL 2 M sulfuric acid were added to plates to top the reaction, and absorbance was determined on a SpectraMax (Molecular Devices, Sunnydale, Calif.) within 15 minutes at 450 nm. […]
OBSERVED PROPERTY: IC50 (nM)
One number for each entry, in nM.

Consider the worked cases shown below.
INSERT INTO measurements (compound, observed_property, recorded_measurement) VALUES
  ('CN(C)C(=O)c1cc2cnc(Nc3ccc(C(=O)N4CC5CCC(C4)N5C(=O)C4CCCN4)cn3)nc2n1C1CCCC1 (stereo not drawn)', 'IC50', 21),
  ('CC(=O)N1C2CCC1CN(C(=O)c1ccc(Nc3ncc4cc(C(=O)N(C)C)n(C5CCCC5)c4n3)nc1)C2', 'IC50', 194),
  ('CC(C)N1[C@@H]2CC[C@H]1CN(c1ccc(Nc3ncc4cc(C(=O)N(C)C)n(C5CCCC5)c4n3)nc1)C(=O)C2', 'IC50', 6),
  ('CN(C)C(=O)c1cc2cnc(Nc3ccc(N4C[C@@H]5CC[C@H](CC4=O)N5S(C)(=O)=O)cn3)nc2n1C1CCCC1', 'IC50', 155),
  ('CN(C)C(=O)c1cc2cnc(Nc3ccc(C(=O)N4CC5COCC(C4)N5)cn3)nc2n1C1CCCC1', 'IC50', 117);

Give me IC50 for each of these compounds, listed below.
1. CN(C)C(=O)c1cc2cnc(Nc3ccc(C(=O)N4CC[C@@H]5CC[C@H](C4)N5)cn3)nc2n1C1CCCC1
2. CN(C)C(=O)c1cc2cnc(Nc3ccc(N4C[C@H]5CNC[C@H]5C4=O)cn3)nc2n1C1CCCCCC1
3. CN(C)C(=O)c1cc2cnc(Nc3ccc(C(=O)N4CC5CCC4C5O)cn3)nc2n1C1CCCC1 (stereo not drawn)
4. CN(C)C(=O)c1cc2cnc(Nc3ccc(N4CC5CC4CN5)cn3)nc2n1C1CCCC1 (stereo not drawn)

Data returned:
[48, 5, 325, 371]

Give me IC50 for each of these compounds, listed below.
1. CN(C)C(=O)c1cc2cnc(Nc3ccc(N4CC5CCC(C4)N5)cn3)nc2n1C1CCCC1
2. CN(C)C(=O)c1cc2cnc(Nc3ccc(C(=O)N4CCN5CCC4CC5)cn3)nc2n1C1CCCC1
3. CN(C)C(=O)c1cc2cnc(Nc3ccc(C(=O)N4CC5CCC4C5O)cn3)nc2n1C1CCCCCC1 (stereo not drawn)

Data returned:
1. 92
2. 152
3. 127
